system-name: T1, biotinylated hTfR1 (Acro Bio p/n TFR-H82E5) (human, UniProt P02786 89-760, biotinylated; site not stated)
T1 construct: Bought reagent of the BLI assay
T1 sequence (P02786 89-760 limits assumed): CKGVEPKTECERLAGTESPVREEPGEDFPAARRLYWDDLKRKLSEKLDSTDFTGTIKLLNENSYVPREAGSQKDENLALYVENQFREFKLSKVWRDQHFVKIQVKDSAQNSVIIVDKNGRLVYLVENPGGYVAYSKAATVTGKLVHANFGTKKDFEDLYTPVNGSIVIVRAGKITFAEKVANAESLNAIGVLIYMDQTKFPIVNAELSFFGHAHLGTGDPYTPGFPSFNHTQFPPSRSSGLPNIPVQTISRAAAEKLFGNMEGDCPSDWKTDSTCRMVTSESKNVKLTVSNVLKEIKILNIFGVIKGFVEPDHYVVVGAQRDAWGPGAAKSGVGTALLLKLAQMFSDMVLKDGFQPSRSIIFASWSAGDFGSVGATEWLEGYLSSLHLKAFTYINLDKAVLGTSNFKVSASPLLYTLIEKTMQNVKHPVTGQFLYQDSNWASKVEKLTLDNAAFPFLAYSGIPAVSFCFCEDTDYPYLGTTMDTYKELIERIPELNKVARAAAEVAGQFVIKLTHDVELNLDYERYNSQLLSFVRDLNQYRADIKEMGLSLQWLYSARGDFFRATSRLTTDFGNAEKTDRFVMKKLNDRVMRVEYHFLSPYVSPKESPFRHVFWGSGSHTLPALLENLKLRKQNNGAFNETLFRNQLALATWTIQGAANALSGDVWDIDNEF
test-protocol: BLI, Octet RH16, biotinylated TfR1 on streptavidin sensor; Fab-siRNA conjugate
recorded-metric: kon

Ask | Entry Fab0061-siRNA conjugate (Fab, V domains shown, siRNA-linker on a reduced cysteine; chain and residue not stated, also called Fab0061 (BLI conjugate columns)) VH: EVQLVESGGGLVQPGGSLRLSCATSGYTFTSYWMHWVRQAPGKGLEWVAEINPTNGRVNYIEKFKSRITLSVDKSKSTVYLQMNSLRAEDTAVYYCARGTRAYHYWGQGTLVTVSS VL: DIQLTQSPSSLSASVGDRVTITCRASDGLYSNLAWYQQKPGKAPKLLIYDATKLASGVPSRFSGSGSGTDYTLTISSLQPEDFATYYCQHFWGTPLTFGQGTKVEIKR has what kon?
Reply | 278000 M⁻¹ s⁻¹
